Listed compounds paired with reported CYP3A4 mRNA Induct Hu 10 uM POC
test system: CYP3A4; experiment: Human CYP 3A4 induction assay (mRNA, cryopreserved human hepatocytes); assay type: in vitro ADME; conditions: human hepatocytes, 10 uM test compound, 72 hours, mRNA, percent of control (rifampin positive control)
The answer is to be given in %; state only the numeric part.

Worked set:
{"Compound": "COc1cc([C@@H]2C[C@H]2C(F)(F)F)c(F)cc1-n1c(=O)ccc2cc(S(=O)(=O)Nc3ccon3)ccc21 (atropisomer, axis not shown; (P))", "Target entity": "CYP3A4", "CYP3A4 mRNA Induct Hu 10 uM POC [%]": 41.96}
{"Compound": "COc1cc([C@H]2C[C@@H]2COC(F)(F)F)c(F)cc1-n1c(=O)ccc2cc(S(=O)(=O)Nc3ccon3)ccc21 (atropisomer, axis not shown; (P))", "Target entity": "CYP3A4", "CYP3A4 mRNA Induct Hu 10 uM POC [%]": 139.9}

Now look at this entry.
For the compound COc1cc(C2CC2)c(F)cc1-n1c(=O)ccc2cc(S(=O)(=O)Nc3ccon3)ccc21 [A, reference compound] , what CYP3A4 mRNA Induct Hu 10 uM POC is on record?
84.31
